# protocol.text: NCI Yeast Anticancer Drug Screen. Data for the rad14 strain (AID 159);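 also: 0% = growth of vehicle-treated control cultures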
# measurement.conditions: S. cerevisiae rad14 strain growth inhibition; at 100.0 µM; stronger effect = higher value
This is part of a sample that, as a whole, favours compounds with a hit. Of some 79,000 tested, about 15% had one in any assay.
quantity.kind: growth inhibition (%)

compound: COC(=O)C1CCCCC1C(=O)Nc1ccccc1 (stereo not drawn)
measure.unit: %
val: -3
--
compound: CC(=O)CC(c1ccccc1)c1c(O)c2ccccc2oc1=O (stereo not drawn)
measure.unit: %
val: 68
--
compound: CC(C)OC(=O)NNc1c(Cl)cc(Cl)cc1Cl
measure.unit: %
val: 7
--
compound: CCN(CC)CCCNc1ccc([N+](=O)[O-])c2nc3ccc(OC)cc3c(NCCCN(CC)CC)c12
measure.unit: %
val: 1
--
compound: Cc1ccc(S(=O)(=O)N/N=C/C(Br)=C(/Br)C(=O)O)cc1
measure.unit: %
val: 95
--
compound: O=C(Oc1ccc([N+](=O)[O-])cc1)c1ccc([N+](=O)[O-])cc1
measure.unit: %
val: 41
--
compound: CCC(/C=C/c1ccccc1)=N\Nc1ccc(Cl)c(Cl)c1
measure.unit: %
val: 94
--
compound: CCOC(=S)SSSC(=S)OCC
measure.unit: %
val: 99
--
compound: c1ccc2c(c1)ccn2CCc1c[nH]c2ccccc12
measure.unit: %
val: 97
--
compound: O=C(O)c1cc2c(cc1S(=O)(=O)O)C1C(C3C2C2(Cl)C(Cl)=C(Cl)C3(Cl)C2(Cl)Cl)C2(Cl)C(Cl)=C(Cl)C1(Cl)C2(Cl)Cl (stereo not drawn)
measure.unit: %
val: 96
--
compound: Clc1ccc(/C(=C\c2ccccc2)Cn2ccnc2)cc1
measure.unit: %
val: 80
--
compound: O=C(NOC(=O)c1ccc([N+](=O)[O-])cc1)c1ccc(Cl)cc1
measure.unit: %
val: 97
--
compound: CCCC/C=C1\CCC(CN2CCCC2)C1=O (stereo not drawn)
measure.unit: %
val: 93
--
compound: COc1cc(OC)c(CSCC(NC(=O)OCC2c3ccccc3-c3ccccc32)C(=O)O)c(OC)c1 (stereo not drawn)
measure.unit: %
val: 99
--
compound: CCOP(=O)(OCC)/C(C#N)=C/c1ccc(-c2ccc(F)cc2F)o1
measure.unit: %
val: 1
--
compound: O=[N+]([O-])c1cc(Cl)ccc1S(=O)(=O)c1ccc(Cl)cc1[N+](=O)[O-]
measure.unit: %
val: 81
--
compound: CCOc1ccc2nc3ccccc3c(N)c2c1
measure.unit: %
val: 92
--
compound: CC(C)=CCC/C(C)=C/CN1C(=O)C=CC1=O
measure.unit: %
val: 100

====

# protocol.text: NCI Yeast Anticancer Drug Screen. Data for the wt1 strain (AID 149);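 also: 0% = growth of vehicle-treated wt1 cultures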
# measurement.conditions: S. cerevisiae wt1 strain (SPY 50644) growth inhibition; at 1.2 µM; stronger effect = higher value
About 79,000 compounds went through this panel and 15% of them were active in at least one assay; those are over-represented in the sample as a whole.

molecule: Cc1c(C(=O)/C=C/c2ccccc2[N+](=O)[O-])[n+](=O)c2ccccc2n1[O-]
growth inhibition [%]: -1
//
molecule: CCS(=O)(=O)Nc1ccc(Nc2c3ccccc3nc3ccccc23)c(OC)c1
growth inhibition [%]: -36
//
molecule: COC(=O)/C(C#N)=C\NC(=S)C(N)=S
growth inhibition [%]: 8
//
molecule: c1ccc2nc3c(nc2c1)sc1ccccc13
growth inhibition [%]: 1
//
molecule: O=C1C(=C2CCCC2)CCC1CN1CCCCC1 (stereo unspecified)
growth inhibition [%]: 6
//
molecule: O=S(=O)(NNc1ccccc1)c1ccccc1
growth inhibition [%]: -1
